Where do the numbers come from? From patent US6218384A.

- TEST DETAILS: Suppression of anxiety (punished licking, conflict test) in the adult male rat
- Assay type: in vivo, male rats
- CONDITION CONTEXT: Table 1, ip, minimum effective dose, >10 = active dose not determined, read-out: Conflict (ip) MED
PROPERTY: minimal effective dose (mg/kg)

[[record]]
compound = "NC(=O)c1ccc(NC(=O)C2=C3Nc4ccccc4N3CCC2=O)cc1 [compound 90]"
qualifying_sign = ">"
result_value = 10

[[record]]
compound = "O=C1CCN2C(=C1C(=O)Nc1nncs1)Nc1ccccc12 [compound 69]"
qualifying_sign = ">"
result_value = 10

[[record]]
compound = "O=C1CCN2C(=C1C(=O)Nc1ccccc1)Nc1ccc(Cl)cc12 [compound 84]"
qualifying_sign = ">"
result_value = 10

[[record]]
compound = "O=C1CCN2C(=C1C(=O)Nc1c(F)cc(F)cc1F)Nc1cc(Cl)ccc12 [compound 104]"
qualifying_sign = "="
result_value = 10

[[record]]
compound = "O=C1CCN2C(=C1C(=O)Nc1cccnc1Cl)Nc1ccccc12 [compound 70]"
qualifying_sign = "="
result_value = 10


###

- TESTED ON: benzodiazepine site of the GABA-A receptor
- TEST DETAILS: Benzodiazepine Receptor Binding Assay (inhibition of 3H-flunitrazepam binding)
- CONDITION CONTEXT: Table 1; ca. 3 nM 3H-flunitrazepam, 25° C., 10-20 min; >10,000 = not active
pIC50: −log10 of the molar value.
PROPERTY: pIC50

[[record]]
smiles_input = "O=C1CCN2C(=C1C(=O)NCCc1ccccc1)Nc1ccccc12"
result_value = 6.55

[[record]]
smiles_input = "O=C1CCN2C(=C1C(=O)Nc1nncs1)Nc1ccccc12"
result_value = 6.52

[[record]]
smiles_input = "O=C1CCN2C(=C1C(=O)NCc1cccnc1)Nc1ccccc12"
result_value = 6.81

[[record]]
smiles_input = "CCCCNC(=O)C1=C2Nc3ccccc3N2CCC1=O"
result_value = 7.27

[[record]]
smiles_input = "O=C1CCN2C(=C1C(=O)Nc1c(Cl)cccc1Cl)Nc1cc(F)ccc12"
result_value = 7.00

[[record]]
smiles_input = "O=C1CCN2C(=C1C(=O)Nc1cccc3cnccc13)Nc1ccccc12"
result_value = 6.11

[[record]]
smiles_input = "O=C1CCN2C(=C1C(=O)Nc1ccnc(Cl)c1)Nc1ccccc12"
result_value = 5.85

[[record]]
smiles_input = "O=C1CCN2C(=C1C(=O)Nc1ccncn1)Nc1ccccc12"
result_value = 6.32

[[record]]
smiles_input = "O=C1CCN2C(=C1C(=O)Nn1cnnc1)Nc1ccccc12"
result_value = 5.57


###

- TESTED ON: benzodiazepine site of the GABA-A receptor
- TEST DETAILS: Benzodiazepine Receptor Binding Assay (inhibition of 3H-flunitrazepam binding)
- CONDITION CONTEXT: Table 1; ca. 3 nM 3H-flunitrazepam, 25° C., 10-20 min; >10,000 = not active
pIC50: −log10 of the molar value.
Below, each of the compounds is paired with its reported pIC50 value.
PROPERTY: pIC50

[[record]]
smiles_input = "O=C1CCN2C(=C1C(=O)Nc1c(F)cc(F)cc1F)Nc1cc(F)ccc12"
property = "pIC50"
qualifying_sign = "="
result_value = 8.52

[[record]]
smiles_input = "O=C1CCN2C(=C1C(=O)Nc1ccc3c(c1)CCN3)Nc1ccccc12"
property = "pIC50"
qualifying_sign = "="
result_value = 7.27

[[record]]
smiles_input = "O=C1CCN2C(=C1C(=O)Nc1ccc(C(=O)O)cc1)Nc1ccccc12"
property = "pIC50"
qualifying_sign = "<"
result_value = 5.00

[[record]]
smiles_input = "Nc1ccccc1NC(=O)C1=C2Nc3ccccc3N2CCC1=O"
property = "pIC50"
qualifying_sign = "="
result_value = 7.30

[[record]]
smiles_input = "CN(C)CCc1ccc(NC(=O)C2=C3Nc4ccccc4N3CCC2=O)cc1"
property = "pIC50"
qualifying_sign = "="
result_value = 6.96

[[record]]
smiles_input = "O=C1CCN2C(=C1C(=O)Nc1ccccn1)Nc1ccccc12"
property = "pIC50"
qualifying_sign = "="
result_value = 7.23

[[record]]
smiles_input = "COc1ccc2c(c1)NC1=C(C(=O)Nc3ccccc3)C(=O)CCN12"
property = "pIC50"
qualifying_sign = "="
result_value = 7.40

[[record]]
smiles_input = "O=C1CCN2C(=C1C(=O)Nc1cccc(Cl)c1)Nc1ccccc12"
property = "pIC50"
qualifying_sign = "="
result_value = 6.92

[[record]]
smiles_input = "O=C1CCN2C(=C1C(=O)Nc1cccc(C(F)(F)F)c1)Nc1ccccc12"
property = "pIC50"
qualifying_sign = "="
result_value = 6.52

[[record]]
smiles_input = "N#Cc1ccc(NC(=O)C2=C3Nc4ccccc4N3CCC2=O)cc1"
property = "pIC50"
qualifying_sign = "="
result_value = 4.89

[[record]]
smiles_input = "CNC(=O)C1=C2Nc3ccccc3N2CCC1=O"
property = "pIC50"
qualifying_sign = "="
result_value = 6.40

[[record]]
smiles_input = "COc1cccc(NC(=O)C2=C3Nc4ccccc4N3CCC2=O)c1"
property = "pIC50"
qualifying_sign = "="
result_value = 7.59

[[record]]
smiles_input = "Cc1nnc(NC(=O)C2=C3Nc4ccccc4N3CCC2=O)s1"
property = "pIC50"
qualifying_sign = "="
result_value = 5.96

[[record]]
smiles_input = "O=C1CCN2C(=C1C(=O)Nc1cccc3ccoc13)Nc1ccccc12"
property = "pIC50"
qualifying_sign = "="
result_value = 6.92

[[record]]
smiles_input = "CN(C)c1ccc(NC(=O)C2=C3Nc4ccccc4N3CCC2=O)cc1"
property = "pIC50"
qualifying_sign = "="
result_value = 6.57

[[record]]
smiles_input = "CCOC(=O)c1ccc(NC(=O)C2=C3Nc4ccccc4N3CCC2=O)cc1"
property = "pIC50"
qualifying_sign = "<"
result_value = 5.00

[[record]]
smiles_input = "O=C1CCN2C(=C1C(=O)Nc1ccccc1Cl)Nc1ccccc12"
property = "pIC50"
qualifying_sign = "="
result_value = 7.92

[[record]]
smiles_input = "O=C1CCN2C(=C1C(=O)NCc1ccncc1)Nc1ccccc12"
property = "pIC50"
qualifying_sign = "="
result_value = 7.19

[[record]]
smiles_input = "O=C1CCN2C(=C1C(=O)Nc1ccc3cn[nH]c3c1)Nc1ccccc12"
property = "pIC50"
qualifying_sign = "="
result_value = 6.46


###

- TESTED ON: benzodiazepine site of the GABA-A receptor
- TEST DETAILS: Benzodiazepine Receptor Binding Assay (inhibition of 3H-flunitrazepam binding)
- CONDITION CONTEXT: Table 1; ca. 3 nM 3H-flunitrazepam, 25° C., 10-20 min; >10,000 = not active
pIC50: −log10 of the molar value.
Below, each of the compounds is paired with its reported pIC50 value.
PROPERTY: pIC50

[[record]]
compound = "O=C1CCN2C(=C1C(=O)Nc1c(F)cc(F)cc1F)Nc1cc(Cl)ccc12 [compound 104]"
tested_on = "benzodiazepine site of the GABA-A receptor"
property = "pIC50"
qualifying_sign = "="
result_value = 7.89

[[record]]
compound = "CC(C)NC(=O)C1=C2Nc3ccccc3N2CCC1=O [compound 105]"
tested_on = "benzodiazepine site of the GABA-A receptor"
property = "pIC50"
qualifying_sign = "="
result_value = 7.34

[[record]]
compound = "O=C1CCN2C(=C1C(=O)Nc1ccccc1F)Nc1cc(F)ccc12 [compound 108]"
tested_on = "benzodiazepine site of the GABA-A receptor"
property = "pIC50"
qualifying_sign = "="
result_value = 8.70

[[record]]
compound = "O=C1CCN2C(=C1C(=O)Nc1nnc(C(F)(F)F)s1)Nc1ccccc12 [compound 74]"
tested_on = "benzodiazepine site of the GABA-A receptor"
property = "pIC50"
qualifying_sign = "="
result_value = 5.00

[[record]]
compound = "O=C1CCN2C(=C1C(=O)Nc1ccc3ncsc3c1)Nc1ccccc12 [compound 72]"
tested_on = "benzodiazepine site of the GABA-A receptor"
property = "pIC50"
qualifying_sign = "="
result_value = 5.00

[[record]]
compound = "CCCCc1ccc(NC(=O)C2=C3Nc4ccccc4N3CCC2=O)cc1 [compound 17]"
tested_on = "benzodiazepine site of the GABA-A receptor"
property = "pIC50"
qualifying_sign = "<"
result_value = 5.00

[[record]]
compound = "O=C1CCN2C(=C1C(=O)Nc1c(F)cc(F)cc1F)Nc1ccccc12 [compound 93]"
tested_on = "benzodiazepine site of the GABA-A receptor"
property = "pIC50"
qualifying_sign = "="
result_value = 7.82

[[record]]
compound = "NC(=O)C1=C2Nc3ccccc3N2CCC1=O [compound 29]"
tested_on = "benzodiazepine site of the GABA-A receptor"
property = "pIC50"
qualifying_sign = "="
result_value = 5.62

[[record]]
compound = "O=C1CCN2C(=C1C(=O)Nc1ccc(F)c(F)c1F)Nc1ccccc12 [compound 96]"
tested_on = "benzodiazepine site of the GABA-A receptor"
property = "pIC50"
qualifying_sign = "="
result_value = 5.82

[[record]]
compound = "C[n+]1ccc(NC(=O)C2=C3Nc4ccccc4N3CCC2=O)cc1 [compound 56]"
tested_on = "benzodiazepine site of the GABA-A receptor"
property = "pIC50"
qualifying_sign = "="
result_value = 5.20

[[record]]
compound = "COc1ccc2c(c1)NC1=C(C(=O)NC3CCCCC3)C(=O)CCN12 [compound 37]"
tested_on = "benzodiazepine site of the GABA-A receptor"
property = "pIC50"
qualifying_sign = "="
result_value = 6.10

[[record]]
compound = "O=C1CCN2C(=C1C(=O)Nc1ccncc1)Nc1cc(Cl)ccc12 [compound 82]"
tested_on = "benzodiazepine site of the GABA-A receptor"
property = "pIC50"
qualifying_sign = "="
result_value = 6.42

[[record]]
compound = "O=C1CCN2C(=C1C(=O)Nc1ccc(F)cc1F)Nc1cc(F)ccc12 [compound 111]"
tested_on = "benzodiazepine site of the GABA-A receptor"
property = "pIC50"
qualifying_sign = "="
result_value = 8.48

[[record]]
compound = "O=C1CCN2C(=C1C(=O)NC1CCC1)Nc1ccccc12 [compound 83]"
tested_on = "benzodiazepine site of the GABA-A receptor"
property = "pIC50"
qualifying_sign = "="
result_value = 7.52

[[record]]
compound = "O=C1CCN2C(=C1C(=O)Nc1ccccc1F)Nc1ccccc12 [compound 20]"
tested_on = "benzodiazepine site of the GABA-A receptor"
property = "pIC50"
qualifying_sign = "="
result_value = 8.77

[[record]]
compound = "CN(C)c1ccccc1NC(=O)C1=C2Nc3ccccc3N2CCC1=O [compound 87]"
tested_on = "benzodiazepine site of the GABA-A receptor"
property = "pIC50"
qualifying_sign = "="
result_value = 5.00

[[record]]
compound = "NS(=O)(=O)c1ccc(NC(=O)C2=C3Nc4ccccc4N3CCC2=O)cc1 [compound 61]"
tested_on = "benzodiazepine site of the GABA-A receptor"
property = "pIC50"
qualifying_sign = "="
result_value = 5.00

[[record]]
compound = "O=C1CCN2C(=C1C(=O)Nc1ccc3[nH]ccc3c1)Nc1ccccc12 [compound 30]"
tested_on = "benzodiazepine site of the GABA-A receptor"
property = "pIC50"
qualifying_sign = "="
result_value = 6.28

[[record]]
compound = "O=C1CCN2C(=C1C(=O)Nc1c(Cl)c(F)nc(F)c1Cl)Nc1ccccc12 [compound 67]"
tested_on = "benzodiazepine site of the GABA-A receptor"
property = "pIC50"
qualifying_sign = "="
result_value = 5.00

